System: ATP;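 note: ATP exposure 15 min at 22 °C before imaging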
testProtocol: switch fluorescence ratio, 500 uM ATP over buffer (Cy3 cluster intensity, sum of 5 cycles each) (fold (ratio)); higher = stronger signal-on switching upon ATP binding; sequences stand for … in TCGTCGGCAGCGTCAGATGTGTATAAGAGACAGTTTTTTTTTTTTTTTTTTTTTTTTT…TC
conditionDetails: aptamer strand: ATP DNA aptamer (quencher-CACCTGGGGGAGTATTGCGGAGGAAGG + anchor), 100 nM annealed; ATP concentration: 500 uM
experimentalEndpoint: switch fluorescence ratio
Lab note: write the figure by itself, no unit.

[[record]]
sequencerecord = "TGATATTTCT"
targetundertest = "ATP"
measuredvalue = 1

[[record]]
sequencerecord = "TGAGCCTGCT"
targetundertest = "ATP"
measuredvalue = 0.98

[[record]]
sequencerecord = "AAGGGGTGTT"
targetundertest = "ATP"
measuredvalue = 1.02

[[record]]
sequencerecord = "TTATATGGGA"
targetundertest = "ATP"
measuredvalue = 1.01


Asked: Name the value of switch fluorescence ratio reported for TGCTAGGGAT when tested on ATP.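 Note: ATP exposure 15 min at 22 °C before imaging.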
Given back: 1.01

Asked: Name the value of switch fluorescence ratio reported for CATCGTGTGT when tested on ATP.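 Note: ATP exposure 15 min at 22 °C before imaging.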
Given back: 0.972

Asked: Name the value of switch fluorescence ratio reported for TTGCTATTTT when tested on ATP.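 Note: ATP exposure 15 min at 22 °C before imaging.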
Given back: 1

---

Tested on: ATP;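 note: ATP exposure 15 min at 22 °C before imaging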
testProtocol: switch fluorescence ratio, 500 uM ATP over buffer (Cy3 cluster intensity, sum of 5 cycles each) (fold (ratio)); higher = stronger signal-on switching upon ATP binding; sequences stand for … in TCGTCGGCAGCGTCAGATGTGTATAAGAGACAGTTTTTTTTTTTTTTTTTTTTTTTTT…TC
conditionDetails: aptamer strand: ATP DNA aptamer (quencher-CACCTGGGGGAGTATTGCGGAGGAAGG + anchor), 100 nM annealed; ATP concentration: 500 uM
experimentalEndpoint: switch fluorescence ratio
Lab note: write the figure by itself, no unit.

Known results for sequences:
[[record]]
sequencerecord = "TCTAAAGGGT"
experimentalendpoint = "switch fluorescence ratio"
measuredvalue = 0.999

[[record]]
sequencerecord = "AGCATTTTCA"
experimentalendpoint = "switch fluorescence ratio"
measuredvalue = 1.24

[[record]]
sequencerecord = "TAATAGATCC"
experimentalendpoint = "switch fluorescence ratio"
measuredvalue = 1.01

[[record]]
sequencerecord = "GCAACTATT"
experimentalendpoint = "switch fluorescence ratio"
measuredvalue = 2.42

[[record]]
sequencerecord = "CACGTTACTG"
experimentalendpoint = "switch fluorescence ratio"
measuredvalue = 1.66

[[record]]
sequencerecord = "GAGGGGAAGA"
experimentalendpoint = "switch fluorescence ratio"
measuredvalue = 0.998


Asked: Name the recorded switch fluorescence ratio of the item TTGGAAGTGC in your answer.
Given back: 1

Asked: Name the recorded switch fluorescence ratio of the item TTGGACGGAA in your answer.
Given back: 1.22

Asked: Name the recorded switch fluorescence ratio of the item ACGGTTTTCA in your answer.
Given back: 0.977

Asked: Name the recorded switch fluorescence ratio of the item TTTCAATGGA in your answer.
Given back: 0.974

---

Recorded measurements of switch fluorescence ratio, one per entry
Tested on: ATP;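 note: ATP exposure 15 min at 22 °C before imaging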
testProtocol: switch fluorescence ratio, 500 uM ATP over buffer (Cy3 cluster intensity, sum of 5 cycles each) (fold (ratio)); higher = stronger signal-on switching upon ATP binding; sequences stand for … in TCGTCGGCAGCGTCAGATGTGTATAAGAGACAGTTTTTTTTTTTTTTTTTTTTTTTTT…TC
conditionDetails: aptamer strand: ATP DNA aptamer (quencher-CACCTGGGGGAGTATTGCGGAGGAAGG + anchor), 100 nM annealed; ATP concentration: 500 uM
Lab note: write the figure by itself, no unit.

Known results for sequences:
[[record]]
sequencerecord = "TAAATCTCTG"
experimentalendpoint = "switch fluorescence ratio"
measuredvalue = 1

[[record]]
sequencerecord = "TGATCTAGGC"
experimentalendpoint = "switch fluorescence ratio"
measuredvalue = 0.98

[[record]]
sequencerecord = "TTCGGTTATG"
experimentalendpoint = "switch fluorescence ratio"
measuredvalue = 1.01

[[record]]
sequencerecord = "GGATTGAAGT"
experimentalendpoint = "switch fluorescence ratio"
measuredvalue = 0.981


Asked: Name the recorded switch fluorescence ratio of the item GCTCGGTTAG in your answer.
Given back: 1.01

---

System: ATP;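 note: ATP exposure 15 min at 22 °C before imaging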
testProtocol: switch fluorescence ratio, 500 uM ATP over buffer (Cy3 cluster intensity, sum of 5 cycles each) (fold (ratio)); higher = stronger signal-on switching upon ATP binding; sequences stand for … in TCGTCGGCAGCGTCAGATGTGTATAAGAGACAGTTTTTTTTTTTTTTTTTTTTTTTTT…TC
conditionDetails: aptamer strand: ATP DNA aptamer (quencher-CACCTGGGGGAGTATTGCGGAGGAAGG + anchor), 100 nM annealed; ATP concentration: 500 uM
Recorded measurements of switch fluorescence ratio, one per entry
Lab note: write the figure by itself, no unit.

Known results for sequences:
[[record]]
sequencerecord = "ACGGTAGGGC"
targetundertest = "ATP"
measuredvalue = 1.03

[[record]]
sequencerecord = "GTAGTCATTT"
targetundertest = "ATP"
measuredvalue = 0.992

[[record]]
sequencerecord = "TTTAATCATT"
targetundertest = "ATP"
measuredvalue = 1


Asked: Name the recorded switch fluorescence ratio of the item AAAAGAGGTT in your answer.
Given back: 1

Asked: Name the recorded switch fluorescence ratio of the item CGGATCGACA in your answer.
Given back: 0.976

Asked: Name the recorded switch fluorescence ratio of the item TTTCCGGAAT in your answer.
Given back: 1.66

Asked: Name the recorded switch fluorescence ratio of the item CAGGACTTTT in your answer.
Given back: 1

Asked: Name the recorded switch fluorescence ratio of the item GGGTATGGGT in your answer.
Given back: 0.995

Asked: Name the recorded switch fluorescence ratio of the item TTGGATGAGG in your answer.
Given back: 0.973

Asked: Name the recorded switch fluorescence ratio of the item CAGGGCAGCG in your answer.
Given back: 1.02

Asked: Name the recorded switch fluorescence ratio of the item TTGCCTTTTT in your answer.
Given back: 0.998

---

System: ATP;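 note: ATP exposure 15 min at 22 °C before imaging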
testProtocol: switch fluorescence ratio, 500 uM ATP over buffer (Cy3 cluster intensity, sum of 5 cycles each) (fold (ratio)); higher = stronger signal-on switching upon ATP binding; sequences stand for … in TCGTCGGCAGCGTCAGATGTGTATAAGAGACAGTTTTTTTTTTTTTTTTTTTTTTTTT…TC
conditionDetails: aptamer strand: ATP DNA aptamer (quencher-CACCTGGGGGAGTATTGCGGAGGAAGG + anchor), 100 nM annealed; ATP concentration: 500 uM
Recorded measurements of switch fluorescence ratio, one per entry
Lab note: write the figure by itself, no unit.

[[record]]
sequencerecord = "GTGATGCAGG"
experimentalendpoint = "switch fluorescence ratio"
measuredvalue = 0.98

[[record]]
sequencerecord = "AGGGGGTCAC"
experimentalendpoint = "switch fluorescence ratio"
measuredvalue = 1

[[record]]
sequencerecord = "GGGAGGGTCT"
experimentalendpoint = "switch fluorescence ratio"
measuredvalue = 0.975

[[record]]
sequencerecord = "GGACGCGTGG"
experimentalendpoint = "switch fluorescence ratio"
measuredvalue = 1.01

[[record]]
sequencerecord = "GGTATACTGT"
experimentalendpoint = "switch fluorescence ratio"
measuredvalue = 0.975

[[record]]
sequencerecord = "ATGAATCTTG"
experimentalendpoint = "switch fluorescence ratio"
measuredvalue = 1.02


Asked: Name the recorded switch fluorescence ratio of the item GGGAGTTGGA in your answer.
Given back: 1.02

Asked: Name the recorded switch fluorescence ratio of the item CCTATTATTA in your answer.
Given back: 1.02

Asked: Name the recorded switch fluorescence ratio of the item TGATAAGAGT in your answer.
Given back: 1.01

Asked: Name the recorded switch fluorescence ratio of the item AGTTGTGTGG in your answer.
Given back: 1.02

Asked: Name the recorded switch fluorescence ratio of the item TATGTGTGGG in your answer.
Given back: 1.01

---

Recorded measurements of switch fluorescence ratio, one per entry
System: ATP;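 note: ATP exposure 15 min at 22 °C before imaging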
testProtocol: switch fluorescence ratio, 500 uM ATP over buffer (Cy3 cluster intensity, sum of 5 cycles each) (fold (ratio)); higher = stronger signal-on switching upon ATP binding; sequences stand for … in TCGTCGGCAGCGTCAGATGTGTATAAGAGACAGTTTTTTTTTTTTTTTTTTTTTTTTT…TC
conditionDetails: aptamer strand: ATP DNA aptamer (quencher-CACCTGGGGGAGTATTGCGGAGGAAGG + anchor), 100 nM annealed; ATP concentration: 500 uM

[[record]]
sequencerecord = "GGGTAGGCAG"
experimentalendpoint = "switch fluorescence ratio"
measuredvalue = 1.18

[[record]]
sequencerecord = "GACTTTTTGC"
experimentalendpoint = "switch fluorescence ratio"
measuredvalue = 0.933

[[record]]
sequencerecord = "AAGTTTTTTT"
experimentalendpoint = "switch fluorescence ratio"
measuredvalue = 1

[[record]]
sequencerecord = "CTTCATAGAT"
experimentalendpoint = "switch fluorescence ratio"
measuredvalue = 1.02

[[record]]
sequencerecord = "TTGAGCATGG"
experimentalendpoint = "switch fluorescence ratio"
measuredvalue = 1.06

[[record]]
sequencerecord = "GAGGCTACTG"
experimentalendpoint = "switch fluorescence ratio"
measuredvalue = 0.99

[[record]]
sequencerecord = "TGGGGCTGGT"
experimentalendpoint = "switch fluorescence ratio"
measuredvalue = 0.99

[[record]]
sequencerecord = "CACTTGTGAC"
experimentalendpoint = "switch fluorescence ratio"
measuredvalue = 1


Asked: Name the recorded switch fluorescence ratio of the item CTTAGAAGCA in your answer.
Given back: 0.994
